tgt: LTD4 receptor (intestinal smooth muscle receptors, guinea pig ileum) (Cavia porcellus)
Construct: Terminal ilea were removed from the animals; from tissue; host or cells: guinea pig terminal ileum segments
Sequence (Q2NNR5 whole entry): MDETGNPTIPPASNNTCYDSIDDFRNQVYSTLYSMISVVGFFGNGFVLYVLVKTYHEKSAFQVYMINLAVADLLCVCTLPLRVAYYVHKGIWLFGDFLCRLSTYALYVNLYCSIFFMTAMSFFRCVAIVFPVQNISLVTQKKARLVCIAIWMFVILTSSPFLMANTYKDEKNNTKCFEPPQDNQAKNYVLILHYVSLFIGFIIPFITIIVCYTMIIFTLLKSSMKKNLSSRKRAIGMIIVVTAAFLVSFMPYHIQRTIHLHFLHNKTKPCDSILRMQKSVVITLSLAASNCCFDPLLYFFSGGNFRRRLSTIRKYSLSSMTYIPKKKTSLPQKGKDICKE
protocol_text: Assay 2 - Guinea Pig Ileum, antagonism of LTD4 contraction
condition_info: drug added 30 minutes prior, read-out: GP ileum (pKb) (converted)
measured_metric: Kb (nM)

The examples below pair each entry with its known result.
Clc1ccc2ccc(/C=C/c3cccc(CN4CCc5cccc(CCc6nnn[nH]6)c54)c3)nc2c1 [Example 4]	2.34
Clc1ccc2ccc(COc3cccc(CN4CCc5cccc(CCc6nnn[nH]6)c54)c3)nc2c1 [Example 5]	3.89
C(=C\c1ccc2ccccc2n1)/c1cccc(CN2CCc3cccc(CCc4nnn[nH]4)c32)c1 [Example 9]	2.51

I = c1cc(CN2CCc3cccc(CCc4nnn[nH]4)c32)cc(OCc2ccc3ccccc3n2)c1 [Example 7]
II = Clc1ccc2ccc(COc3ccc(CN4CCc5cccc(CCc6nnn[nH]6)c54)cc3)nc2c1 [Example 6]
For the two items I and II , which reports the higher Kb value? Output the label that corresponds to your choice.
I

----------
tgt: LTD4 receptor (guinea pig lung membrane) (Cavia porcellus, UniProt Q2NNR5)
Construct: guinea-pig lung membrane preparation; from tissue; host or cells: guinea pig lung membranes
Sequence (Q2NNR5 whole entry): as above
protocol_text: Assay 3 - Guinea Pig Lung Membrane [3H] LTD4 Radioligand Binding (GPLM binding)
condition_info: [3H] LTD4, guinea pig lung membrane, 30 min, 30° C., pH 6.5
measured_metric: GPLM binding (pKi)

C(=C\c1ccc2ccccc2n1)/c1cccc(CN2CCc3cccc(CCc4nnn[nH]4)c32)c1	7.8
Clc1ccc2ccc(COc3cccc(CN4CCc5cccc(CCc6nnn[nH]6)c54)c3)nc2c1	8.0
Clc1ccc2ccc(COc3ccc(CN4CCc5cccc(CCc6nnn[nH]6)c54)cc3)nc2c1	7.6
Clc1ccc2ccc(/C=C/c3cccc(CN4CCc5cccc(CCc6nnn[nH]6)c54)c3)nc2c1	8.3
c1cc(CN2CCc3cccc(CCc4nnn[nH]4)c32)cc(OCc2ccc3ccccc3n2)c1	7.3

----------
tgt: leukotriene receptor (guinea pig trachea) (Cavia porcellus, UniProt Q2NNR5)
Construct: Trachea were cut into ring segments and the epithelium removed; from tissue; host or cells: guinea pig tracheal rings, epithelium removed (male Hartley)
Sequence (Q2NNR5 whole entry): as above
protocol_text: Assay 1 - Guinea Pig Tracheae, leukotriene receptor antagonism (LTD4 contraction)
condition_info: antagonist added 45 minutes prior, read-out: GP trach (pKb) (converted)
Description: Assay 1--Guinea Pig Tracheae Leukotriene receptor antagonism was evaluated in isolated smooth muscles by the following procedure: Male Hartley guinea pigs weighing 250-400 grams were asphyxiated with CO2 and exsanguinated. […] Isometric measurements were made with a Grass FTO3C force-displacement transducer and recorded on a Grass polygraph as changes in grams of force. […]
measured_metric: Kb (nM)

Clc1ccc2ccc(/C=C/c3cccc(CN4CCc5cccc(CCc6nnn[nH]6)c54)c3)nc2c1	28.8
Clc1ccc2ccc(COc3cccc(CN4CCc5cccc(CCc6nnn[nH]6)c54)c3)nc2c1	8.32

I = Clc1ccc2ccc(COc3ccc(CN4CCc5cccc(CCc6nnn[nH]6)c54)cc3)nc2c1
II = c1cc(CN2CCc3cccc(CCc4nnn[nH]4)c32)cc(OCc2ccc3ccccc3n2)c1
Compare reported Kb values for I and II . Which is lower? Identify your pick by its label.
II
(II: 15.8 nM, I: 25.7 nM)
